test_protocol: Human Plasma Protein Binding (Test B)
Assay type: in vitro ADME
settings: fraction unbound (fu)
reported_endpoint: Test B Human Plasma Protein Binding (% free)

Answered cases to consult:
COc1cc(F)c(-c2ccc(CCC(=O)O)cc2)cc1C(=O)N[C@@H]1CCC[C@@H]1C(=O)Nc1cccc(S(=O)(=O)C(F)(F)F)c1    0.45
COc1cc(F)c(O[C@H]2CC[C@@](C)(C(=O)O)CC2)cc1C(=O)N[C@@H]1[C@H]2CC[C@H](C2)[C@@H]1C(=O)N[C@@H](C)C(C)(C)C    6.9
CCC(C)(C)CNC(=O)[C@H]1CCC[C@H]1NC(=O)c1cc(O[C@H]2CC[C@@](C)(C(=O)O)CC2)c(F)cc1OC    7
COc1cc(F)c(-c2cnn(CCC(=O)O)c2)cc1C(=O)N[C@@H]1[C@H]2CC[C@H](C2)[C@@H]1C(=O)Nc1cccc(S(=O)(=O)C(F)(F)F)c1    2
COc1cc(F)c(O[C@H]2CC[C@@H](C(=O)O)CC2)cc1C(=O)N[C@@H]1[C@H]2CC[C@H](C2)[C@@H]1C(=O)Nc1c(F)cccc1F    8.6
COc1cc(F)c(O[C@H]2CC[C@@](C)(C(=O)O)CC2)cc1C(=O)N[C@@H]1[C@H]2CC[C@H](C2)[C@@H]1C(=O)NCC1(F)CCOCC1    24

I. COc1cc(F)c(-c2ccn(CCC(=O)O)c(=O)c2)cc1C(=O)N[C@@H]1[C@H]2CC[C@H](C2)[C@@H]1C(=O)Nc1cccc(S(=O)(=O)C(F)(F)F)c1
II. COc1cc(F)c(O[C@H]2CC[C@@H](C(=O)O)CC2)cc1C(=O)N[C@@H]1[C@H]2CC[C@H](C2)[C@@H]1C(=O)Nc1cccc(I)c1
III. COc1cc(F)c(Cc2cnn(CC(=O)O)c2)cc1C(=O)N[C@@H]1[C@H]2CC[C@H](C2)[C@@H]1C(=O)Nc1cccc(S(=O)(=O)C(F)(F)F)c1
Please put the entries in order of rising Test B Human Plasma Protein Binding (% free). In plain terms: list the labels in the order you were asked to.
II, III, I

----------
test_protocol: Solubility (Test F)
Assay type: physicochemical
settings: arithmetic mean if run multiple times
reported_endpoint: solubility (µM)

COc1cc(F)c(OC2CCC(C)(C(=O)O)CC2)cc1C(=O)NC1CC(OC)CC1C(=O)Nc1cccc(S(=O)(=O)C(F)(F)F)c1 (single isomer, unassigned) [Example 524]    920
COc1ccc(O[C@H]2CC[C@@](C)(C(=O)O)CC2)cc1C(=O)N[C@@H]1[C@H]2CC[C@H](C2)[C@@H]1C(=O)NCC1(C)CCC1 [Example 381]    1000
COc1cc(F)c(OCCCCC(=O)O)cc1C(=O)N[C@H]1[C@@H](C(=O)Nc2cccc(S(=O)(=O)C(F)(F)F)c2)[C@@H]2C=C[C@H]1C2 (racemic) [Example 451]    700
COc1cc(F)c(O[C@H]2CC[C@@](C)(C(=O)O)CC2)cc1C(=O)N[C@@H]1[C@H]2CC[C@H](C2)[C@@H]1C(=O)N[C@@H](C)C(C)(C)C [Example 45]    960
COc1cc(C#N)c(O[C@H]2CC[C@@](C)(C(=O)O)CC2)cc1C(=O)N[C@@H]1[C@H]2CC[C@H](C2)[C@@H]1C(=O)NCC(F)(F)C(F)(F)F [Example 102]    820
COc1cc(C#N)c(O[C@H]2CC[C@@](C)(C(=O)O)CC2)cc1C(=O)N[C@@H]1[C@H]2CC[C@H](C2)[C@@H]1C(=O)NCC(C)(C)O [Example 76]    790

Reference for the values: patent US11667602B2
